Hello, the source for this data is BindingDB's records for PubMed 8863838, in case you need it.

pKi: −log10 of the molar value.
The reader will find pKi measurements below, all made with Metabotropic glutamate receptor 4 (Rattus norvegicus, UniProt P31423).
Sequence (P31423 whole entry): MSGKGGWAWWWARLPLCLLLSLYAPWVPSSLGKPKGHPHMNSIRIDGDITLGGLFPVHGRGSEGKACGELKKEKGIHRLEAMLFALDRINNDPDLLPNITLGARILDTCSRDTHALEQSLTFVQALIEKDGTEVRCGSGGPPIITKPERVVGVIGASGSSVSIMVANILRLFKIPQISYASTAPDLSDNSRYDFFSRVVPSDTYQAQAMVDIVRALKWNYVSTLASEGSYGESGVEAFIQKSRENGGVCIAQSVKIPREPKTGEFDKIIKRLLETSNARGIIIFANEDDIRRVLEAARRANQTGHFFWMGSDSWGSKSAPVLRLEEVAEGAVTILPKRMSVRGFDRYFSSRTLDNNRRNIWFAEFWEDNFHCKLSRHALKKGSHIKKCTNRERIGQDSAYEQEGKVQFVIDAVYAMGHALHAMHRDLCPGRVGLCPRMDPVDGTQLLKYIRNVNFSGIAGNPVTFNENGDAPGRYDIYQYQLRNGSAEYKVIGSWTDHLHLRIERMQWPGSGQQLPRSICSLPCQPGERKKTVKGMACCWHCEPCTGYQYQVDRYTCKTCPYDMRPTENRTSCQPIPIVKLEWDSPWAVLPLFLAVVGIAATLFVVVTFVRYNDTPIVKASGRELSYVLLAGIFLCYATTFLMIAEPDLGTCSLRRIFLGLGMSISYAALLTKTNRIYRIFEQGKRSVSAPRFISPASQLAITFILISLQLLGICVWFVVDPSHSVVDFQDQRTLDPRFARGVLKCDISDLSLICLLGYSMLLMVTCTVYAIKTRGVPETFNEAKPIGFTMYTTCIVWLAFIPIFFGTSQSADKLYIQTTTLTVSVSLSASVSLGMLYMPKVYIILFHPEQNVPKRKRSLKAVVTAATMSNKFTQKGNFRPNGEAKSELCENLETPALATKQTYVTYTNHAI
measured.parameter: pKi

compound="CC(N)(C(=O)O)c1ccc(P(=O)(O)O)cc1 (stereo unspecified)" system_name="Metabotropic glutamate receptor 4 (Rattus norvegicus, UniProt P31423)" measured_parameter=pKi endpoint_result="< 5.00"
compound=N[C@@]1(C(=O)O)CC[C@H](CC(=O)O)C1 system_name="Metabotropic glutamate receptor 4 (Rattus norvegicus, UniProt P31423)" measured_parameter=pKi endpoint_result="< 5.00"
compound=N[C@@H](CCP(=O)(O)O)C(=O)O system_name="Metabotropic glutamate receptor 4 (Rattus norvegicus, UniProt P31423)" measured_parameter=pKi endpoint_result=6.40
compound=N[C@@H](Cn1oc(=O)[nH]c1=O)C(=O)O system_name="Metabotropic glutamate receptor 4 (Rattus norvegicus, UniProt P31423)" measured_parameter=pKi endpoint_result="< 5.00"
compound="NC(C(=O)O)c1cc(=O)[nH]o1 (stereo unspecified)" system_name="Metabotropic glutamate receptor 4 (Rattus norvegicus, UniProt P31423)" measured_parameter=pKi endpoint_result="< 5.00"
compound=N[C@H](C(=O)O)[C@H]1C[C@@H]1C(=O)O system_name="Metabotropic glutamate receptor 4 (Rattus norvegicus, UniProt P31423)" measured_parameter=pKi endpoint_result=5.05
compound="CC(N)(CCP(=O)(O)O)C(=O)O (stereo unspecified)" system_name="Metabotropic glutamate receptor 4 (Rattus norvegicus, UniProt P31423)" measured_parameter=pKi endpoint_result="< 5.00"
compound=N[C@@H](CCC(=O)O)C(=O)O system_name="Metabotropic glutamate receptor 4 (Rattus norvegicus, UniProt P31423)" measured_parameter=pKi endpoint_result="< 5.00"
compound=N[C@@]1(C(=O)O)CC[C@H](C(=O)O)C1 system_name="Metabotropic glutamate receptor 4 (Rattus norvegicus, UniProt P31423)" measured_parameter=pKi endpoint_result="< 5.00"
compound="CC(N)(C(=O)O)c1ccc(S(=O)(=O)O)cc1 (stereo unspecified)" system_name="Metabotropic glutamate receptor 4 (Rattus norvegicus, UniProt P31423)" measured_parameter=pKi endpoint_result="< 5.00"
compound=N[C@@H](COP(=O)(O)O)C(=O)O system_name="Metabotropic glutamate receptor 4 (Rattus norvegicus, UniProt P31423)" measured_parameter=pKi endpoint_result=5.64
